Numbers sourced from the supplement of paper PMC10065799.

system: c-Abl (mouse); assay: phosphorylation enrichment, bacterial display (enrichment ratio); higher = better substrate or ligand; peptides without Tyr show the background
Quick rule for you: phosphorylation enrichment at 0.8 or higher means class 1, lower means class 0.

[[record]]
macromolecule_sequence = "LSSETYVKSFT [F5_Y2149_M2148T_YF]"
tgt = "c-Abl (mouse)"
class = "class 0"

[[record]]
macromolecule_sequence = "TSFSGYRFHRH [NKAPL_Y94_YF]"
tgt = "c-Abl (mouse)"
class = "class 0"

[[record]]
macromolecule_sequence = "RHYVYYYSYLL [PTEN_Y177_R173H]"
tgt = "c-Abl (mouse)"
class = "class 1"

[[record]]
macromolecule_sequence = "MAYDRYAAICS [OR8H2_Y123_H120Y]"
tgt = "c-Abl (mouse)"
class = "class 1"

[[record]]
macromolecule_sequence = "FRDALYKFMVD [PHEX_Y250_YF]"
tgt = "c-Abl (mouse)"
class = "class 1"


* * *

biological target: Grb2 SH2 (UniProt P62993); assay: SH2 binding enrichment of the phosphorylated peptide, bacterial display (enrichment ratio); higher = better substrate or ligand; peptides without Tyr show the background
Sequence (P62993 whole entry, looked up): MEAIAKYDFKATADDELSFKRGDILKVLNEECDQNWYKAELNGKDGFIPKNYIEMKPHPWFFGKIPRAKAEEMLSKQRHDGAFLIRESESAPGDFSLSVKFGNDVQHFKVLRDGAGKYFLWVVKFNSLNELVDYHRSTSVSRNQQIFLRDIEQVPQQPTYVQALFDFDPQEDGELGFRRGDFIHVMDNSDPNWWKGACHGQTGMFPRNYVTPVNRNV
RESULT_TYPE: SH2 binding enrichment

[[record]]
macromolecule_sequence = "QPSALYEDRFL [ASS1_Y83_S79P_YF]"
tgt = "Grb2 SH2 (UniProt P62993)"
test_value = 0.783

[[record]]
macromolecule_sequence = "ISNATYKEIGL [FLT1_Y199]"
tgt = "Grb2 SH2 (UniProt P62993)"
test_value = 0.823

[[record]]
macromolecule_sequence = "GGSDRYGSLRP [MYLK_Y846]"
tgt = "Grb2 SH2 (UniProt P62993)"
test_value = 0.997

[[record]]
macromolecule_sequence = "EQLGEYKFQNA [ALB_Y425]"
tgt = "Grb2 SH2 (UniProt P62993)"
test_value = 0.793

[[record]]
macromolecule_sequence = "SLDLSYFPTSS [EMD_Y181_YF]"
tgt = "Grb2 SH2 (UniProt P62993)"
test_value = 0.8

[[record]]
macromolecule_sequence = "IHFPPYTDWNQ [ALDH3B2_Y365_YF]"
tgt = "Grb2 SH2 (UniProt P62993)"
test_value = 0.979

[[record]]
macromolecule_sequence = "PYGQWYESHYA [RPS8_Y113_R110G]"
tgt = "Grb2 SH2 (UniProt P62993)"
test_value = 0.808

[[record]]
macromolecule_sequence = "QEKKGYFEDRR [GLUL_Y336]"
tgt = "Grb2 SH2 (UniProt P62993)"
test_value = 1.02


* * *

target: EPHB2 (UniProt P29323); assay: phosphorylation enrichment, bacterial display (enrichment ratio); higher = better substrate or ligand; peptides without Tyr show the background
Sequence (P29323 whole entry, looked up): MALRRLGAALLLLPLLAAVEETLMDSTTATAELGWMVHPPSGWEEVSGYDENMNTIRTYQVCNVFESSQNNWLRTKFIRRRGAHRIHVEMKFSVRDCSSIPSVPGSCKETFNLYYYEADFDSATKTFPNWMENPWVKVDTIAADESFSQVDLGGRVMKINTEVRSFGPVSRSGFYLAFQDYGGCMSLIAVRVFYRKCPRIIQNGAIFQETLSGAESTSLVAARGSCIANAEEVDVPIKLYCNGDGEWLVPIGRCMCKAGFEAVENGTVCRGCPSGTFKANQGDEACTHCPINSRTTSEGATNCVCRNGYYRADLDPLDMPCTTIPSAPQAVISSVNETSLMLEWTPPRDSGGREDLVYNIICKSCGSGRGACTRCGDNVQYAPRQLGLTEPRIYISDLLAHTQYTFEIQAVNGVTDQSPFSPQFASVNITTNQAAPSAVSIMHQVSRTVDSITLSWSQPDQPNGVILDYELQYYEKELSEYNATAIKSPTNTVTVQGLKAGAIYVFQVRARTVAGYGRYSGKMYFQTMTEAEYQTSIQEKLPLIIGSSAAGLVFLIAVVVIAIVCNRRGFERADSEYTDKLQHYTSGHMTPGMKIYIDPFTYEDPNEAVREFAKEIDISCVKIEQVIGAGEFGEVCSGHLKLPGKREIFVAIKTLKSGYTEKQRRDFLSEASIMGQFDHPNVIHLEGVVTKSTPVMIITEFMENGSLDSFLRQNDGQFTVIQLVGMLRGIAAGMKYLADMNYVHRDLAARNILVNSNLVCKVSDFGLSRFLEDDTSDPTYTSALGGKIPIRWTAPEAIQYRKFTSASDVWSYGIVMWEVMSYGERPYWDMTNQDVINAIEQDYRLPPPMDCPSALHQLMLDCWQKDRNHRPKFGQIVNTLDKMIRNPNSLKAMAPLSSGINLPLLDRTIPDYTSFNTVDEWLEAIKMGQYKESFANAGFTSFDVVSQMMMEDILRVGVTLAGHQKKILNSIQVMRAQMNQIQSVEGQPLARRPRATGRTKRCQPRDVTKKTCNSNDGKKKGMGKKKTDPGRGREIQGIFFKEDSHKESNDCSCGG
RESULT_TYPE: phosphorylation enrichment

[[record]]
macromolecule_sequence = "DEFLEYRRIVG [FAM221A_Y20_YF]"
tgt = "EPHB2 (UniProt P29323)"
test_value = 0.439

[[record]]
macromolecule_sequence = "IKETHYMVDKC"
tgt = "EPHB2 (UniProt P29323)"
test_value = 0.531

[[record]]
macromolecule_sequence = "KALSLYTKLMN [STAM_Y371_E366K]"
tgt = "EPHB2 (UniProt P29323)"
test_value = 0.774

[[record]]
macromolecule_sequence = "QPSPSYDSSGG [TCF12_Y70_R74G]"
tgt = "EPHB2 (UniProt P29323)"
test_value = 0.778

[[record]]
macromolecule_sequence = "ASMAKYFASEI [ACADSB_Y372_YF]"
tgt = "EPHB2 (UniProt P29323)"
test_value = 0.436

[[record]]
macromolecule_sequence = "GTSLIYWTLFT [G6PC3_Y214]"
tgt = "EPHB2 (UniProt P29323)"
test_value = 2.09

[[record]]
macromolecule_sequence = "IRRQGYSHRIL [MYO3B_Y993]"
tgt = "EPHB2 (UniProt P29323)"
test_value = 0.568

